Consider the following compounds; for each one, report its IC50.
# ASSAY TARGET: Polyunsaturated fatty acid 5-lipoxygenase (Rattus norvegicus)
# PROTOCOL NOTES: Ability to inhibit Lipoxygenase in vitro was determined
Answers are plain numbers, in µM.

Example results:
COMPOUND	ASSAY TARGET	IC50, µM
COC(=O)CCC(=O)Nc1cccc(Oc2nc3ccccc3s2)c1	Polyunsaturated fatty acid 5-lipoxygenase (Rattus norvegicus)	27.1
COC(=O)C1CC(=O)N(c2cccc(OCc3nc4ccccc4o3)c2)C1 (stereo not drawn)	Polyunsaturated fatty acid 5-lipoxygenase (Rattus norvegicus)	30

Below are 6 compounds. Give each one its IC50.
1. COC(=O)C1CC(=O)N(c2cccc(OCc3ccc4ccccc4n3)c2)C1 (stereo not drawn)
2. COC(=O)C1CC(=O)N(c2cccc(OCc3nc4ccccc4s3)c2)C1 (stereo not drawn)
3. COC(=O)CCC(=O)Nc1cccc(OCc2cc3ccccc3o2)c1
4. COC(=O)CCC(=O)N(O)c1cccc(OCc2nc3ccccc3s2)c1
5. COC(=O)CCC(=O)N(C)c1cccc(OCc2nc3ccccc3s2)c1
6. CCCc1c(OCCCCc2nnn[nH]2)ccc(C(C)=O)c1O [TOMELUKAST]

Response:
[19.1, 14, 17.9, 0.36, 21, 18.9]

----------
# ASSAY TARGET: Polyunsaturated fatty acid 5-lipoxygenase (Rattus norvegicus, UniProt P12527)
# Sequence (P12527 whole entry): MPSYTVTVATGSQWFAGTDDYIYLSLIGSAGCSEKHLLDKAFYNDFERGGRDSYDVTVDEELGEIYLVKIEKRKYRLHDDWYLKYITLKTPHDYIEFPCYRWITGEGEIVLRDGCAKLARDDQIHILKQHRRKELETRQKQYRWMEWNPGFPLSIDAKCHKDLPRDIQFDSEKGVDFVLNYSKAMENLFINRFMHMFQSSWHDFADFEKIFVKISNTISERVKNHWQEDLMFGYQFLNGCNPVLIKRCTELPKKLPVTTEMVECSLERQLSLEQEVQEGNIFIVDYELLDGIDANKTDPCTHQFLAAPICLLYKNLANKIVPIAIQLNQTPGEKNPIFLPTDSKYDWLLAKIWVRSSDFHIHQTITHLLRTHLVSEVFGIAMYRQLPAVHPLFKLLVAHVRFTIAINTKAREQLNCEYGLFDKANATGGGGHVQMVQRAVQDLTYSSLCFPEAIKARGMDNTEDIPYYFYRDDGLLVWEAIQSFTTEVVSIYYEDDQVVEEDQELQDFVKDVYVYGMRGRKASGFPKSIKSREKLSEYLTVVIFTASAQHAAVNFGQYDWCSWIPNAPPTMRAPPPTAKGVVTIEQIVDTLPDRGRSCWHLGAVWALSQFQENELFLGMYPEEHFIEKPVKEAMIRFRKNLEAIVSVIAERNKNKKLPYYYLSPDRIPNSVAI
# PROTOCOL NOTES: Ability to inhibit the rat Lipoxygenase in vitro was determined
READOUT: IC50 (µM)
Answers are plain numbers, in µM.

Prompt: Give the value of IC50 reported for the following: "COC(=O)CCC(=O)Nc1cccc(OCc2nc3ccccc3s2)c1"
Response: 15.7

----------
# ASSAY TARGET: Polyunsaturated fatty acid 5-lipoxygenase (Rattus norvegicus)
# PROTOCOL NOTES: Ability to inhibit Lipoxygenase in vitro was determined
READOUT: IC50
I'd appreciate it if you included the unit after the number.

COC(=O)CCC(=O)Nc1cccc(OCc2nc3ccccc3n2C)c1 7.2 µM
COC(=O)CCC(=O)Nc1cccc(OCc2nc3ccccc3o2)c1 69.7 µM

Prompt: Give the value of IC50 reported for the following: "COC(=O)CC(=O)Nc1cccc(OCc2nc3ccccc3s2)c1"
Response: 17 µM
